MEASURED_TARGET: T1, purified human glycophorin A protein (Sigma, cat # G5017) (human, UniProt P02724 20-150)
T1 construct: mature; also called Sigma hGPA; Sigma GPA
T1 sequence (looked up): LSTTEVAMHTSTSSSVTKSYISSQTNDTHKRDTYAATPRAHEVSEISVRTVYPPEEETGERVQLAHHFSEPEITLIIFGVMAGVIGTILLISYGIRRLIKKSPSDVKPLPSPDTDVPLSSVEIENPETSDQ
TEST_SUMMARY: ELISA, native hGPA
Quick reference for binding by ELISA relative to parental among some binders
Respond with the number and no other words.

Sample answers from the record:
BINDER	binding by ELISA relative to parental
TPP-5340 (Fab, V domains shown, also called VL: (S24R)) VH: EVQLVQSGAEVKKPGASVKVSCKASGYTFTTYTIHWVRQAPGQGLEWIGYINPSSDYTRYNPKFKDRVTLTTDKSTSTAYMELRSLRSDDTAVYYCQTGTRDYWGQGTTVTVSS VL: DIQLTQSPSFLSASVGDRVTITCRAASSVSYIYWFQQKPGKAPKLLIYSTSTLPSGVPSRFSGSGSGTEYTLTISSLQPEDFATYYCHQRNSFPFTFGQGTKLEIKR	1.17
TPP-5329 (Fab, V domains shown, also called VH: (D66G)) VH: EVQLVQSGAEVKKPGASVKVSCKASGYTFTTYTIHWVRQAPGQGLEWIGYINPSSDYTRYNPKFKGRVTLTTDKSTSTAYMELRSLRSDDTAVYYCQTGTRDYWGQGTTVTVSS VL: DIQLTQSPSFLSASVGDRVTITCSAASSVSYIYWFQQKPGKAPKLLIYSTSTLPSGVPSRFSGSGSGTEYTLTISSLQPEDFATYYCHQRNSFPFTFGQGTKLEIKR	1.02
TPP-5332 (Fab, V domains shown, also called VH: (K74T)) VH: EVQLVQSGAEVKKPGASVKVSCKASGYTFTTYTIHWVRQAPGQGLEWIGYINPSSDYTRYNPKFKDRVTLTTDTSTSTAYMELRSLRSDDTAVYYCQTGTRDYWGQGTTVTVSS VL: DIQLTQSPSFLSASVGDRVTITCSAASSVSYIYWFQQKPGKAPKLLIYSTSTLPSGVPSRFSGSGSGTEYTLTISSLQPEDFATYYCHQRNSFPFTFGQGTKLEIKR	0.83
TPP-5355 (Fab, V domains shown, also called VL: (F95Y)) VH: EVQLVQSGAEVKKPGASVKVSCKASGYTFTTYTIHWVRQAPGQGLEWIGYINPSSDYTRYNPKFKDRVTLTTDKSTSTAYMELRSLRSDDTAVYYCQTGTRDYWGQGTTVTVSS VL: DIQLTQSPSFLSASVGDRVTITCSAASSVSYIYWFQQKPGKAPKLLIYSTSTLPSGVPSRFSGSGSGTEYTLTISSLQPEDFATYYCHQRNSFPYTFGQGTKLEIKR	1.16

Ask: If you can, please state the reported binding by ELISA relative to parental value of TPP-5343 (Fab, V domains shown, also called VL: (S28G)) VH: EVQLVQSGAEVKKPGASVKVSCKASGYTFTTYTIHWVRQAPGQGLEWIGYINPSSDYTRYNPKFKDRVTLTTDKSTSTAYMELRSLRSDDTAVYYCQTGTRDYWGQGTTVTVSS VL: DIQLTQSPSFLSASVGDRVTITCSAASGVSYIYWFQQKPGKAPKLLIYSTSTLPSGVPSRFSGSGSGTEYTLTISSLQPEDFATYYCHQRNSFPFTFGQGTKLEIKR .
Reply: 0.95

Ask: Proceed to TPP-5349 (Fab, V domains shown, also called VL: (T50A)) VH: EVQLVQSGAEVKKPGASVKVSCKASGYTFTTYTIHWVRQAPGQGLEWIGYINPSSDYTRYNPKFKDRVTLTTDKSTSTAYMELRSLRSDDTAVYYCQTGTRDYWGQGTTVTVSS VL: DIQLTQSPSFLSASVGDRVTITCSAASSVSYIYWFQQKPGKAPKLLIYSASTLPSGVPSRFSGSGSGTEYTLTISSLQPEDFATYYCHQRNSFPFTFGQGTKLEIKR
Reply: 0.12

Ask: TPP-5357 (Fab, V domains shown, also called VL: (S24R)#) VH: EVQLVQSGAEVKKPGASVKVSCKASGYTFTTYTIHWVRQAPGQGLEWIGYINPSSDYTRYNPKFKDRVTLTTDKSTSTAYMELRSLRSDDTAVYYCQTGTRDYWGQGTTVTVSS VL: DIQLTQSPSFLSASVGDRVTITCRAASSVSSYIYWFQQKPGKAPKLLIYSTSTLPSGVPSRFSGSGSGTEYTLTISSLQPEDFATYYCHQRNSFPFTFGQGTKLEIKR , same question.
Reply: 0.23

Ask: Please do the same for TPP-5317 (Fab, V domains shown, also called VH: (T31S)) VH: EVQLVQSGAEVKKPGASVKVSCKASGYTFTSYTIHWVRQAPGQGLEWIGYINPSSDYTRYNPKFKDRVTLTTDKSTSTAYMELRSLRSDDTAVYYCQTGTRDYWGQGTTVTVSS VL: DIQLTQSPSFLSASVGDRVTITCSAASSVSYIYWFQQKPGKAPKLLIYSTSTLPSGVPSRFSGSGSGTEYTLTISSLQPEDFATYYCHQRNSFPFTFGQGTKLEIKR as well.
Reply: 1.36

Ask: Moving on to the next binder: TPP-5351 (Fab, V domains shown, also called VL: (Y70F)) VH: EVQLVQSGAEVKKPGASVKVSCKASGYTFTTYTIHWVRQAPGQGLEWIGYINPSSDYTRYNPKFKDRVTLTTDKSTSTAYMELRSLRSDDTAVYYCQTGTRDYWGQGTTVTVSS VL: DIQLTQSPSFLSASVGDRVTITCSAASSVSYIYWFQQKPGKAPKLLIYSTSTLPSGVPSRFSGSGSGTEFTLTISSLQPEDFATYYCHQRNSFPFTFGQGTKLEIKR
Reply: 0.71

Ask: What do you get for TPP-5347 (Fab, V domains shown, also called VL: (F35Y)) VH: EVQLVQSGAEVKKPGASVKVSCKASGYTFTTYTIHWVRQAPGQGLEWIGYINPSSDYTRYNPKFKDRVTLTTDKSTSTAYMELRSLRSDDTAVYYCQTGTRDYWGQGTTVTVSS VL: DIQLTQSPSFLSASVGDRVTITCSAASSVSYIYWYQQKPGKAPKLLIYSTSTLPSGVPSRFSGSGSGTEYTLTISSLQPEDFATYYCHQRNSFPFTFGQGTKLEIKR ?
Reply: 0.52
